Entries and their measured pIC50 follow.
# tested-target: H. sapiens SLC2A9 variant 2 (GLUT9B) (Homo sapiens)
# Sequence (Q9NRM0 1-511 isoform Q9NRM0-2): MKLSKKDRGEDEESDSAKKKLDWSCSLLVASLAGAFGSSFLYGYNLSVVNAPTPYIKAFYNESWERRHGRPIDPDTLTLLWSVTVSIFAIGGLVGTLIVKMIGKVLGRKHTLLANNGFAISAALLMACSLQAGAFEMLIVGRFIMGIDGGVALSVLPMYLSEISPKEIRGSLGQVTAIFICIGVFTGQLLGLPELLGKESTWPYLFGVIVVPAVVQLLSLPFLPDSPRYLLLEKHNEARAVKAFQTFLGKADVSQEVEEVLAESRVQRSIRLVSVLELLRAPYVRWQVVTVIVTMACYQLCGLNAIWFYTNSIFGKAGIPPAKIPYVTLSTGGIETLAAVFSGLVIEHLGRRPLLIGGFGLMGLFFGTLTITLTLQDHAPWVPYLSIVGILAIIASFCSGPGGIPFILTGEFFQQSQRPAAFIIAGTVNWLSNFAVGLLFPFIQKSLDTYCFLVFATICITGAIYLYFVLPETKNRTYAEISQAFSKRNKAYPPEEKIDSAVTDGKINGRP
# measurement-protocol: GLUT9 functional assay: uric acid uptake in HEK293T cells, allantoin formation by MS/MS as proxy of GLUT9B inhibition
# Type: cell-based
# measurement-setup: 15 minute assay; HEK293T cells stably expressing GLUT9B and transiently A. oryzae uricase; uric acid 0.3 mM, 37° C.; read-out: 15 min IC50
# Procedure: Uric acid stocks (9 mM, Millipore-Sigma, U0881) were generated in 125 mM choline chloride (Millipore-Sigma, C7017) and the concentration was determined at 293 nm using a molar extinction coefficient of 9600 M- ^1 cm- ^1) after collecting the absorbance spectra from 220-350 nm. Allantoin stocks (12 mM Toronto Research Chemicals, A540500) were generated in LCMS grade water (Thermo Scientific, 51140). The concentration of allantoin was determined by qNMR (Michigan State University). […]
pIC50: −log10 of the molar value.

Known pIC50 results, listed for orientation:
CCCCc1cnc(-c2ccc(OCCOC(F)(F)F)cc2)c(N2CCC(C(=O)O)CC2)n1 = < 5.70
O=C(O)c1c[nH]c2cc(-c3cc(COC(F)(F)F)cnc3-c3cc(F)c4occc4c3)ccc12 = > 6.30
CCCCc1cnc(-c2ccc(OC)cc2)c(-c2cc(=O)[nH][nH]2)c1 = < 5.70
CN(C)S(=O)(=O)NC(=O)C1CCN(c2nc(COCC(F)(F)F)cnc2-c2cc(F)c3occc3c2)CC1 = 5.70 to 6.30

Entry O=C(O)C1CCN(c2nc(CCC(F)(F)F)cnc2-c2ccc3c(c2)CCO3)CC1 has what pIC50?
> 6.30

Entry CCCCc1cnc(-c2ccc(OC)cc2)c(N2CCC(CC(=O)O)CC2)n1 has what pIC50?
> 6.30

Entry O=C(O)C1CCN(c2nc(CCC(F)(F)F)cnc2-c2ccc(OC(F)(F)F)cc2)CC1 has what pIC50?
5.70 to 6.30

Entry O=C(O)C1CCN(c2nc(CCCC(F)(F)F)cnc2-c2ccc3c(c2)CCO3)CC1 has what pIC50?
> 6.30

Entry CCCCc1cnc(-c2ccc(OC)cc2)c(-c2c[nH]c(C(=O)O)c2)c1 has what pIC50?
< 5.70

Entry CCC(F)(F)Cc1cnc(-c2ccc(OCCOC)cc2)c(N2CCC(C(=O)O)CC2)n1 has what pIC50?
< 5.70

Entry O=C(O)C1CCN(c2nc(CCCC(F)(F)F)cnc2-c2ccc3c(c2)OCO3)CC1 has what pIC50?
> 6.30
